src = patent US10988465B2

# system: UniProt P61073
# assay.procedure: Intracellular CXCL-12-induced calcium mobilization assay (FLIPR)
# details: U87.CXCR4 cells; CXCL-12 25-50 ng/mL; compound added 15 min before; read-out: IC50 CXCL-12 Ca^2+ flux U87.CXCR4+
property.name: IC50

Please review the following examples before continuing.
                                   molecule  property_name           value
0  CN1CC2CCC(C1)N2c1cccc2nc([C@H]3CCC[C@@H](c4ncccc4Cl)N3)[nH]c12           IC50  0.01 to 100 nM
1  Cc1cccnc1[C@@H]1CCC[C@H](c2nc3cccc(N4C[C@@H](C)N[C@@H](C)C4)c3[nH]2)N1C           IC50  0.01 to 100 nM
2  Cc1cccnc1[C@@H]1CCC[C@H](c2nc3ccccc3n2CCCN(C)C)N1C           IC50  0.01 to 100 nM
3  Cc1cccnc1[C@@H]1CCC[C@H](c2nc3ccccc3n2CCCO)N1C           IC50  100 to 1000 nM

Task: Which IC50 reading was recorded for the molecule "Cc1cccnc1[C@@H]1CCC[C@H](c2nc3ccccc3n2CCCN(C)C)N1" ?
Output: ≥ 1000 nM

Task: What would you report for "Cc1cccnc1[C@@H]1CCC[C@H](c2nc3cccc(N4CCN(C)CC4)c3n2C)N1C" ?
Output: 0.01 to 100 nM

Task: What would you report for "Cc1cccnc1[C@@H]1CCC[C@H](c2nc3ccccc3n2CCn2cccn2)N1C" ?
Output: ≥ 1000 nM

Task: What would you report for Cc1cccnc1[C@@H]1CCC[C@H](c2nc3cccc(N4CCN(C)CC4)c3[nH]2)N1C (single isomer, unassigned) [I-3a] ?
Output: 0.01 to 100 nM

###

# system: CXCR-4 transfected U87 cell line (U87.CXCR4) (Homo sapiens, UniProt P61073)
# Sequence (P61073 whole entry): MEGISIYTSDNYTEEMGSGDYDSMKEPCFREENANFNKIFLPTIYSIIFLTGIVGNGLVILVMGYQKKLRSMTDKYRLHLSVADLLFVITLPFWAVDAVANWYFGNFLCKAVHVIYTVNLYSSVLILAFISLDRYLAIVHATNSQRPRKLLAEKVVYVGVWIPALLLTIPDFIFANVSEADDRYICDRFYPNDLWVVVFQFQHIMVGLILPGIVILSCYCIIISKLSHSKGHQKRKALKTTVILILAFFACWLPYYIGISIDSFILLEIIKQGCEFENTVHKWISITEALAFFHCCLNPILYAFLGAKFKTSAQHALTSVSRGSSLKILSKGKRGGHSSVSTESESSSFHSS
# assay.procedure: Intracellular CXCL-12-induced calcium mobilization assay (FLIPR)
# details: U87.CXCR4 cells; CXCL-12 25-50 ng/mL; compound added 15 min before; read-out: IC50 CXCL-12 Ca^2+ flux U87.CXCR4+
pIC50: −log10 of the molar value.
property.name: pIC50

Please review the following examples before continuing.
>>> print(df.to_string())
                                   compound  property_name          value
0  CN1[C@@H](c2nc3cccc(N4CCN5CCCC5C4)c3[nH]2)CCC[C@H]1c1ncccc1Cl (some centres unmarked) [I-150]          pIC50  7.00 to 11.00
1  CNCCCn1c([C@H]2CCC[C@@H](c3ncccc3C)N2C)nc2ccccc21          pIC50  7.00 to 11.00
2  Cc1cccnc1[C@@H]1CCC[C@H](c2nccn2CCCN(C)C)N1C          pIC50   6.00 to 7.00
3  CN1CCN(c2cccc3nc([C@H]4CCC[C@@H](c5ncccc5Cl)N4C)[nH]c23)CC1          pIC50   6.00 to 7.00

We now examine a further compound.
Task: Which pIC50 reading was recorded for the compound "Cc1cccnc1[C@@H]1CCC[C@H](c2nc3cccc(N4CC5CCC(C4)N5C)c3[nH]2)N1C" ?
Output: 7.00 to 11.00

###

Each entry below carries its recorded half-life.
# assay.procedure: Rat brain uptake assay: pharmacokinetics and brain penetration after IV-PO administration
# Assay type: in vivo, male SD rats
# details: male, SD, plasma; Rat (3 mg/kg IV; 10 mg/kg, PO); read-out: t½ (converted)
Answer with a number only, understood to be in h.

In [3]: df
Out[3]:
                                   molecule  value
0  Cc1cccnc1[C@@H]1CCC[C@H](c2nc3cccc(N4CCN(C)CC4)c3[nH]2)N1C (racemic)    2.1

We now examine a further molecule.
Task: Which half-life reading was recorded for the molecule CN1CCN(c2cccc3nc([C@H]4CCC[C@@H](c5ncccc5Cl)N4)[nH]c23)CC1 (racemic) ?
Output: 5.31

###

# assay.procedure: Mouse brain uptake assay (MBUA), 3 mg/kg IV, 0-24 h, 4 time points
# Type: in vivo, male CD1 mice
# details: male, CD1; brain, mouse, 3 mg/kg IV, 0-24 h; read-out: AUClast (b)
property.name: AUC(0-t) (ng·h/mL)

Please review the following examples before continuing.
                                   compound  property_name  value
0  Cc1cccnc1[C@@H]1CCC[C@H](c2nc3cccc(N4CC5CCC(C4)N5C)c3[nH]2)N1C       AUC(0-t)   3000
1  CN1CCN(c2cccc3nc([C@H]4CCC[C@@H](c5ncccc5Cl)N4)[nH]c23)CC1 (racemic)       AUC(0-t)   7930

(I) Cc1cccnc1[C@@H]1CCC[C@H](c2nc3cccc(N4CCN5CCCC5C4)c3[nH]2)N1C (some centres unmarked)
(II) Cc1cc(F)cnc1[C@@H]1CCC[C@H](c2nc3cccc(N4CCN(C)CC4)c3[nH]2)N1C
(III) CN1[C@@H](c2nc3cccc(N4CCN5CCCC5C4)c3[nH]2)CCC[C@H]1c1ncccc1Cl (some centres unmarked)
Task: Please put the entries in order of rising AUC(0-t). Record the ranking as a list of labels in the requested order.
Output: II, I, III
(II: 4080 ng·h/mL, I: 9320 ng·h/mL, III: 15300 ng·h/mL)

###

# assay.procedure: in vitro
# details: human, Caco-2, pH 7.4
property.name: Papp B→A at 90 min, 10 μM

Please review the following examples before continuing.
>>> print(df.to_string())
                            molecule_smiles                 value
0  Cc1cccnc1[C@@H]1CCC[C@H](c2nc3ccccc3n2CCCN2CCOCC2)N1C   10 to 30 ×10⁻⁶ cm/s
1  Cc1cccnc1[C@@H]1CCC[C@H](c2nccn2CCc2ccccn2)N1   10 to 30 ×10⁻⁶ cm/s
2  Cc1cccnc1[C@@H]1CCC[C@H](c2nc3ccccc3n2CCCN2CCN(C)CC2)N1C  0.1 to 10 ×10⁻⁶ cm/s

Task: Which Papp B→A at 90 min, 10 μM reading was recorded for the compound "CN(C)C1CCN(c2cccc3nc([C@H]4CCC[C@@H](c5ncccc5Cl)N4C)[nH]c23)CC1" ?
Output: 10 to 30 ×10⁻⁶ cm/s

Task: What would you report for "Cc1cccnc1[C@@H]1CCC[C@H](c2nc3ccccc3n2CCCN(C)C)N1C" ?
Output: 0.1 to 10 ×10⁻⁶ cm/s

###

# assay.procedure: MTD, pharmacokinetics and brain penetration after PO administration
# Assay type: in vivo, male C57BL/6 mice
# details: male, C57BL/6, in vivo, MTD mouse, single administration, D 1-50 mg/kg, read-out: t½ (converted)
property.name: half-life (h)
Answer with a number only, understood to be in h.

Task: Which half-life reading was recorded for the molecule Cc1cccnc1[C@@H]1CCC[C@H](c2nc3cccc(N4CCN(C)CC4)c3[nH]2)N1C (racemic) ?
Output: 3.3

###

Each entry below carries its recorded Papp A→B at 90 min, 10 μM.
# assay.procedure: in vitro
# details: human, Caco-2, pH 7.4

Please review the following examples before continuing.
In [3]: df
Out[3]:
                            molecule_smiles                 value
0  Cc1cccnc1[C@@H]1CCC[C@H](c2nc3ccccc3n2CCCN)N1C  0.1 to 10 ×10⁻⁶ cm/s
1  Cc1cccnc1[C@@H]1CCC[C@H](c2nc3cccc(N4CCNC5(CC5)C4)c3[nH]2)N1C   10 to 30 ×10⁻⁶ cm/s
2  Cc1cccnc1[C@@H]1CCC[C@H](c2nc3cccc(N4CC5CCC(C4)N5C)c3[nH]2)N1  0.1 to 10 ×10⁻⁶ cm/s

Task: Which Papp A→B at 90 min, 10 μM reading was recorded for the molecule "CN1CCN(c2cccc3nc([C@H]4CCC[C@@H](c5ncccc5C#N)N4C)[nH]c23)CC1" ?
Output: 10 to 30 ×10⁻⁶ cm/s

Task: What would you report for "CCN1CCC(Cn2c([C@H]3CCC[C@@H](c4ncccc4C)N3C)nc3ccccc32)CC1" ?
Output: 0.1 to 10 ×10⁻⁶ cm/s

Task: What would you report for "Cc1cccnc1[C@@H]1CCC[C@H](c2nc3ccccc3n2CCCN(C)C)N1C" ?
Output: 0.1 to 10 ×10⁻⁶ cm/s

Task: What would you report for "CN1CCN(c2cccc3nc([C@H]4CCC[C@@H](c5ccccn5)N4C)[nH]c23)CC1" ?
Output: 10 to 30 ×10⁻⁶ cm/s

Task: What would you report for "CN1CCN(c2cccc3nc([C@H]4CCC[C@@H](c5nccc6c5OCCO6)N4C)[nH]c23)CC1" ?
Output: 10 to 30 ×10⁻⁶ cm/s
